Test system: Adult houseflies (Musca domestica)
Assay: Housefly injection assay with plant-expressed proteins (TSP extract)
Format: in vivo
Conditions: 2 hours post-injection; 0.5 μL TSP extract per fly; impacted = knock-down and dead
linker = not defined here; ERSP = not defined here
readout label: % Impacted (%)

M3: plant-expressed DVP-insecticidal protein ERSP-UBI-L-DVP-HIS, DVP SEQ ID NO 189 ({ERSP-ubiquitin-linker}-AKDGDVEGPAGCKKYDVECDSGECCQKQYLWHKWRALDCRCLKSGFFSSKCVCRDV-{His tag}; cysteine pairing not given here; reading uncertain)	80

* * *

System: Adult houseflies (Musca domestica)
Assay: Housefly injection assay with plant-expressed proteins (TSP extract)
Assay type: in vivo
Settings: 2 hours post-injection; 0.5 μL TSP extract per fly; impacted = knock-down and dead
linker = not defined here; ERSP = not defined here
readout label: % Impacted (%)

M4: plant-expressed DVP-insecticidal protein ERSP-UBI-L-DVP-HIS, DVP SEQ ID NO 190 ({ERSP-ubiquitin-linker}-AKDGDVEGPAGCKKYDVECDSGECCQKQYLFSKWRPLDCRCLKSGFFSSKCVCRDV-{His tag}; cysteine pairing not given here; reading uncertain)	100
M2: plant-expressed DVP-insecticidal protein ERSP-UBI-L-DVP-HIS, DVP SEQ ID NO 188 ({ERSP-ubiquitin-linker}-AKDGDVEGPAGCKKYDVECDSGECCQKQYLWKKWRALDCRCLKSGFFSSKCVCRDV-{His tag}; cysteine pairing not given here; reading uncertain)	60
M1: plant-expressed DVP-insecticidal protein ERSP-UBI-L-DVP-HIS, DVP SEQ ID NO 187 ({ERSP-ubiquitin-linker}-AKDGDVEGPAGCKKYDVECDSGECCQKQYLWSKWRALDCRCLKSGFFSSKCVCRDV-{His tag}; cysteine pairing not given here; reading uncertain)	60

The origin of these recorded values is patent US20240018198A1.
